- systemTested: Aurora kinase A (Homo sapiens)
- statedConditions: Compound concentration 20.0 uM, Protein concentration 2.0 uM, Result type QC Liability
- Description: Thermal Shift Assay. Domain: start/stop: E122-S403
This section presents molecules with their documented ΔTm values.
Report the figure in °C without appending any unit label.

INSERT INTO results (smilesstructure, unitstext, recordedmeasurement) VALUES
  ('CCCS(=O)(=O)N[C@H]1C[C@@H](N(C)c2ncnc3[nH]ccc23)C1', '°C', 3.25);

Report ΔTm for Cc1cc2c(ncn2C2(C)CN(C(=O)c3ccn(CC4CCN([C@H]5C=CCCCC5)CC4)c3)C2)c(N)n1
-1

Determine from records and report ΔTm for CC1(C)C(=O)N([C@H]2CCc3c(O)cccc32)c2nc(Nc3cccc(CN4CCCC4)c3)ncc21
12.8

State, in one line, measured ΔTm of COc1cc2c(NC3CCN(C(C)C)CC3)nc(C3CCCCC3)nc2cc1OCCCN1CCCC1
0.5

Tell me ΔTm reported for Cc1nc2c(cc1F)c(-c1nnc3c(n1)NC(=O)C3(C)C)nn2Cc1cccc(F)c1F
-0.06

====

- systemTested: Tyrosine-protein kinase ABL1 (Homo sapiens) (UniProt P00519)
- Sequence (P00519 whole entry): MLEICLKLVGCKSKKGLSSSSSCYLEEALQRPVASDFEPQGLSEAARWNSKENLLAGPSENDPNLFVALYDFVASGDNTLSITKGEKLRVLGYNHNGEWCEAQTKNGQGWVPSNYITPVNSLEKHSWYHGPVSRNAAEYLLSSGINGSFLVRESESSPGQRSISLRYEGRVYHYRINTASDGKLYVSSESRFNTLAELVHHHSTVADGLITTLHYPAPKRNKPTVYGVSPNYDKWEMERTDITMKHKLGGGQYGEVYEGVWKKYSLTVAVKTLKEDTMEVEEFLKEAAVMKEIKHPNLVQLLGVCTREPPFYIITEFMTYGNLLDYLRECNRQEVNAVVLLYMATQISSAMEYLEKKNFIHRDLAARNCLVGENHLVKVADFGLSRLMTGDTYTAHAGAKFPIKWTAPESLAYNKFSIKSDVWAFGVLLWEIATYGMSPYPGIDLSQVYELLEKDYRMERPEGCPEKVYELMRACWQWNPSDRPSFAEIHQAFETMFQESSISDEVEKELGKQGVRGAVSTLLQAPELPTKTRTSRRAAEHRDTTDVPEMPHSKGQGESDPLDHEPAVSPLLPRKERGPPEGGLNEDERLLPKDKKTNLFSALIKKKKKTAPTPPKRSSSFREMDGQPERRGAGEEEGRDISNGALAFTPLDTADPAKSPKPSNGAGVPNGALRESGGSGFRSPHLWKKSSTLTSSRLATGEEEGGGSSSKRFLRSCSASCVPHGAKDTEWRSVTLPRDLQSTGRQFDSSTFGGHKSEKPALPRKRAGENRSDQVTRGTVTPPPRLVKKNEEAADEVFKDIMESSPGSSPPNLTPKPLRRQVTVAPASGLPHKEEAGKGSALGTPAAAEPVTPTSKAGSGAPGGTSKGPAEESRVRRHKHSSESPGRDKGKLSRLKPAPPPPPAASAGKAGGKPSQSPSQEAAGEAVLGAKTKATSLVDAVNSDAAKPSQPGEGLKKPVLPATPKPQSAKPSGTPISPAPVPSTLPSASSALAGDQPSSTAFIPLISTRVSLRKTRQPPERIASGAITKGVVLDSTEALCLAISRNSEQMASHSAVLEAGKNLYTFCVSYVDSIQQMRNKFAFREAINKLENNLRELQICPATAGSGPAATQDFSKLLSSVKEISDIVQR
- statedConditions: Compound concentration 20.0 uM, Protein concentration 2.0 uM, Result type QC Liability
- Description: Thermal Shift Assay. Domain: start/stop: S229-K512
assayEndpoint: ΔTm (°C)
Just the number in °C, nothing appended.

INSERT INTO assay_data (smilesstructure, unitstext, recordedmeasurement) VALUES
  ('CC(=O)N1CCC(c2ccc(C(=O)NC3=NCCN3)cc2C(F)(F)F)CC1', '°C', 0.33),
  ('COc1ccc(-c2csc(NC(=O)[C@H]3CCCCN3S(=O)(=O)c3ccc(C)cc3)n2)cc1', '°C', 0.82),
  ('Cc1nsc(Nc2cnc(C(F)(F)F)cn2)c1C(=O)Nc1ccc(O[C@H]2CCCN(CC(F)(F)F)C2)nc1', '°C', 0.72);

Attention now shifts to the item below.
State, in one line, measured ΔTm of CCN1C(=O)c2cc(C)ccc2N(C)c2ncccc21
-0.36

====

Listed below: ΔTm values for each entry.
- systemTested: Aurora kinase A (Homo sapiens) (UniProt O14965)
- Sequence (whole entry): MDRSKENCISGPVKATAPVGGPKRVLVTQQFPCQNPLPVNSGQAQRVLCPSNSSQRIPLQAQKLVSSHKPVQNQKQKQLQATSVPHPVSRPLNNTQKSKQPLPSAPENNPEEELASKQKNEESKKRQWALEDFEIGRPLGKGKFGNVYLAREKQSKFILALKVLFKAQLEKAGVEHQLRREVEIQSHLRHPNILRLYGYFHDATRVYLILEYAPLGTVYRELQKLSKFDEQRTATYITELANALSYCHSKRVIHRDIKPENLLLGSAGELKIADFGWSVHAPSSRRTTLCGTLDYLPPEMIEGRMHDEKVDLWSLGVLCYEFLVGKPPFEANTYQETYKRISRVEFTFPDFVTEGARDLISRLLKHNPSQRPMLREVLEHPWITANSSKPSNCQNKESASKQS
- statedConditions: Compound concentration 20.0 uM, Protein concentration 2.0 uM, Result type QC Liability
Return type: number; implicit unit °C.

Study these solved cases before continuing.
INSERT INTO results (molecule, assayendpoint, recordedmeasurement) VALUES
  ('CN[C@@H](C)C(=O)N[C@H](C(=O)N1CCC[C@H]1C(=O)N[C@H]1c2ccccc2C[C@H]1OCC#CC#CCO[C@@H]1Cc2ccccc2[C@@H]1NC(=O)[C@@H]1CCCN1C(=O)[C@@H](NC(=O)[C@H](C)NC)C1CCCCC1)C1CCCCC1', 'ΔTm', -1.88),
  ('CCCCC(C)(O)C/C=C/[C@H]1[C@H](O)CC(=O)[C@@H]1CCCCCCC(=O)O (stereo partly drawn)', 'ΔTm', -0.31),
  ('C[C@]12CC[C@@H]3c4ccc(O)cc4CC[C@H]3[C@@H]1C[C@H]1OC(=O)C[C@]12O', 'ΔTm', 0.5),
  ('CN(C)C(=O)Cn1cc(-c2nc(C3(c4ccc(-c5cnc(N)nc5)cc4)CC3)no2)cn1', 'ΔTm', 1.51),
  ('COc1cc(C(=O)NC2CCN(C)CC2)ccc1Nc1ncc(C(F)(F)F)c(NCc2ccc(C)cc2N(C)S(C)(=O)=O)n1', 'ΔTm', 5.17),
  ('O=C(Cc1ccccc1)Nc1nnc(N2C[C@H]3C[C@@H]2CN3c2cccnn2)s1', 'ΔTm', -0.14),
  ('CCN1C(=O)c2cc(C)ccc2N(C)c2ncccc21', 'ΔTm', 0.08),
  ('COc1cccc(Cn2cc(C(=O)Nc3ccc(C)c(S(=O)(=O)N4CCOCC4)c3)c(-c3ccc(C)cc3)n2)c1', 'ΔTm', 3.73),
  ('CCN(C)C(=O)c1ccc2c(c1)NC(=O)/C2=C(\NC1CCN(C)CC1)c1ccccc1', 'ΔTm', -0.37),
  ('CC(C)(C)OC(=O)CN1C(=O)c2c(OCC(=O)O)cccc2Oc2ccc(C(F)(F)F)cc21', 'ΔTm', -0.28);

Specify reported ΔTm for the molecule shown: Cc1csc(S(=O)(=O)N(CC(C)C)c2cc3c(cc2OCc2ccc(C(=O)O)cc2)CCC3)n1
-0.4

Output ΔTm of O=c1cc(C2CCNCC2)n2nc3cccc(Cl)c3c2[nH]1
-0.12

Please supply the value of reported ΔTm for the item Cc1cc(CN)cc(C)c1-c1ncn(C)c1-c1cncn1C
-0.37

Please give the documented ΔTm of CNS(=O)(=O)c1ccc(N(C)C)c(Nc2ncnc3cc(OC)c(OC)cc23)c1
-1.08

Consider the molecule Cc1cc(OC2CCS(=O)(=O)CC2)cc(C)c1-c1cccc(COc2ccc(C(=O)O)c(F)c2)c1 and give its recorded ΔTm.
-1.19

====

- systemTested: Aurora kinase A (Homo sapiens) (UniProt O14965)
- Sequence (whole entry): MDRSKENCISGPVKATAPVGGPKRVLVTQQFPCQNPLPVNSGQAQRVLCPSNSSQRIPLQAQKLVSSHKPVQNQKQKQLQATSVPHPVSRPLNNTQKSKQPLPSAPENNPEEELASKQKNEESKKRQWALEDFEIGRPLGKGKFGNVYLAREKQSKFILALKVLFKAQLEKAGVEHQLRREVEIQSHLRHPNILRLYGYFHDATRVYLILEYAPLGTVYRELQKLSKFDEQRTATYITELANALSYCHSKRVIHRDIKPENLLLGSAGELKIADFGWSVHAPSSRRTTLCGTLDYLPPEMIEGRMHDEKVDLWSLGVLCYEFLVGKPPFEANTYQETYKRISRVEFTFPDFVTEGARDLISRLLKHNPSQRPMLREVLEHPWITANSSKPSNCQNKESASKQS
- statedConditions: Compound concentration 20.0 uM, Protein concentration 2.0 uM, Result type QC Liability
Everything with ΔTm lower than -0.1 °C is false; everything else, including exactly -0.1 °C, is true.

INSERT INTO assay_data (compound, class) VALUES
  ('O=C(NC1CCNCC1)c1n[nH]cc1NC(=O)c1c(Cl)cccc1Cl', 'false'),
  ('COc1cc(-c2cncc(-c3cnn(C4CCNCC4)c3)c2)cc(OC)c1OC', 'false'),
  ('N#Cc1ccc(C#CC[C@@H](C#N)NC(=O)[C@@H]2CCCCN2)cc1F', 'true');

Could you please find out whether CC1CCN(c2ccnc(NCc3cn(C)cn3)n2)CC1 has ΔTm that meets -0.1 °C or exceeds it?
false

hey, is ΔTm for this one >= -0.1 °C? CCOC(=O)Nc1ccc2c(c1)N(C(=O)CN(CC)CC)c1ccccc1CC2
false

Hello, I need to know if Cc1n[nH]c2ncc(C(=O)N3CCC[C@H]3c3ccc(Cl)cc3)cc12 has measured ΔTm not below -0.1 °C. Thanks!
true

Hi team, for O=C(Nc1cc2cc[nH]c(=O)c2cc1Cl)[C@H]1CNC[C@@H]1c1cccnc1 , is the recorded ΔTm at or above -0.1 °C?
false

ΔTm >= -0.1 °C for CC1(C)Cc2nc(C3CCCC3)c([C@@H](F)c3ccc(C(F)(F)F)cc3)c(C3CCCCC3)c2[C@@H](O)C1 ?
false

Could you tell me if the measured ΔTm of CCCCc1c(-c2ccccc2)nc(N)nc1-c1ccc(OCc2ccccc2)c(F)c1F reaches -0.1 °C or more?
false

Hello, I need to know if CN1CCCN(C(=O)c2cccc(-c3ccc(/C=C4/C(=O)Nc5ccc(Cl)cc54)o3)c2)CC1 has measured ΔTm not below -0.1 °C. Thanks!
true

Is it the case that CC(C)NC(=O)[C@H]1CCC[C@H]1Nc1nc(Nc2ccc(CN(C)C)cc2)ncc1Br has ΔTm reaching or exceeding -0.1 °C?
true

Does the compound COc1cc2ncnc(Nc3cccc(O)c3)c2cc1OC have recorded ΔTm that is -0.1 °C or more?
true

Assess whether reported ΔTm for CC1(C)Oc2ncnc(N)c2N=C1c1ccc([C@H]2CC[C@H](CC(=O)O)CC2)cc1 sits at -0.1 °C or higher.
true

Determine whether this compound has ΔTm no lower than -0.1 °C: CN1CCC(C#N)(NC(=O)[C@@H](NC(=O)N2CCOCC2)C(C)(C)C)CC1
false

Is ΔTm for Cn1c(Nc2c(Cl)cccc2Cl)nc2ccc3nc[nH]c(=O)c3c21 at or above -0.1 °C?
true

API: above_or_equal(metric=ΔTm, cutoff=-0.1 °C) for item Cc1ccc(-c2cn3nc(C(=O)NC4(c5ccc(F)cc5)CN(C)C4)c(C(C)C)c3c(=O)[nH]2)cc1C
true

Tell me whether ΔTm is at least -0.1 °C here: C[C@H](NC(=O)c1cnc2n1[C@](C)(Cc1ccc(C#N)cc1)C(=O)N2c1cc(Cl)c(F)c(Cl)c1)C(=O)NC1(c2ccccn2)CC1
true

Does the reported ΔTm for CNc1nc(-c2ccc3c(N)n[nH]c3c2)cc(N2C[C@@H](C(=O)NC3CCCCC3)CC[C@H]2C)n1 fall at or above the -0.1 °C mark?
true

Is it the case that Clc1cccc(Nc2nccc(NCCCN3CCOCC3)n2)c1 has ΔTm reaching or exceeding -0.1 °C?
true

Check if ΔTm >= -0.1 °C (inclusive). Item: CCCCOc1c(C(=O)c2c(F)cc(C)cc2F)c[nH]c2nncc1-2
true

API: above_or_equal(metric=ΔTm, cutoff=-0.1 °C) for item Cn1nc(C(=O)NCc2ccc(C(=O)O)cc2)cc1-c1ccc2[nH]ccc2c1
true

In plain terms: is recorded ΔTm at least -0.1 °C for Nc1ncc2c(n1)-c1c([nH]c3ccc(C4CC4)cc13)CCCC2 ?
false

Identify whether the reported ΔTm of the following compound is -0.1 °C or greater: Cc1ccc(NC(=O)c2ccc(CN3CC[C@H](N(C)C)C3)c(C(F)(F)F)c2)cc1Nc1nccc(-c2cncnc2)n1
true

Is reported ΔTm greater than or equal to -0.1 °C here: COc1cc(C(N)=O)nc(-c2cccc(C#C[C@]3(O)CCN(C)C3=O)c2)c1
true

Tell me whether ΔTm is at least -0.1 °C here: CNC(=O)COc1cc2cc(Nc3nc(N4C[C@H](C)C[C@H](C)C4)ncc3Cl)ccc2n(C)c1=O
true

Determine whether measured ΔTm meets or exceeds -0.1 °C for CN1C(=O)[C@@H](NC(=O)c2cc(Cc3ccccc3)on2)COc2ccccc21
false

Is ΔTm for C[C@@H]1OCC2(CCN(c3cnc(Sc4ccnc(N)c4Cl)c(N)n3)CC2)[C@@H]1N at or above -0.1 °C?
false

Identify whether the reported ΔTm of the following compound is -0.1 °C or greater: O=C(O)c1ccc(OCCCc2ccc(OCCCCOC3CCCCC3)cc2)c(C(=O)NC2CCCC(C(=O)O)C2)c1 (stereo not drawn)
false

Confirm if ΔTm reported for the compound C/C(=C\C(=O)Nc1ccccc1C(=O)O)c1ccc2ccccc2c1 is -0.1 °C or above.
true
